# systemName: Follistatin-related protein 3 (Homo sapiens) (UniProt O95633)
# Sequence (O95633 whole entry, looked up): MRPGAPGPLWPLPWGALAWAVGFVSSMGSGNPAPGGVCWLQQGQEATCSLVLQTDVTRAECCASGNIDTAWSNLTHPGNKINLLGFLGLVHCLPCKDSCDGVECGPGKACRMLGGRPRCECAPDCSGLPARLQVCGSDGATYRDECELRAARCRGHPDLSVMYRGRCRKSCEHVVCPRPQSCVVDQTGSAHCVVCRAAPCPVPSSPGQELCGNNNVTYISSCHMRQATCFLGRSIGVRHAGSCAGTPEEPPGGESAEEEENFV
# measurementDescription: FSTL3 binders on small-molecule microarrays, primary screen, biochemical, small-molecule microarray, 635 nm fluorescence (AID 1105);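 also: score merges emission near 667 nm and signal to noise per printed spot across three slides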
# runParameters: FSTL3 binding, higher = more signal

compound	composite z-score
O=C1OCCC=C[C@H]2OC34C=CCN(Cn5nnc6ccccc65)C(=O)[C@H]3N(CCCCCCO)C(=O)[C@@H]4C12 (some centres not stated)	-0.822
CC(=O)NCCCC[C@@H]1NC(=O)[C@@H]2C[C@H](C(=O)NCCCC[N+](C)(C)C)[C@H](c3ccc(O)cc3)N2C1=O	1.47
COC(=O)[C@@]1(Cc2ccc(F)cc2)[C@H]2c3cc(C(=O)N(C)C)n(Cc4cc(F)cc5c4OCOC5)c3C[C@H]2CN1C(=O)c1ccccc1	0.913
C=CCOC(=O)[C@H]1[C@@H]2C(=O)O[C@@H](c3ccccc3)[C@@H](c3ccccc3)N2[C@@H](c2ccc(OCCOC(=O)[C@H]3C[C@H]4C(=O)N[C@@H](CCCCNC(C)=O)C(=O)N4[C@H]3c3ccc(O)cc3)cc2)[C@]12C(=O)Nc1ccccc12	0.932
COC(=O)[C@@]1(Cc2ccccc2)[C@@H]2C(=CC(=O)[C@H]2CC(=O)C(=O)N(C)C)CN1C(=O)c1ccccc1	0.471
OCCCC1=CC(c2ccc(CN3CCCC3)cc2)N(Cc2sc3ccccc3c2Cl)CC1 (configuration not stated)	0.854
COc1ccc(NC(=O)O[C@H]2[C@H](OC(=O)Nc3ccccc3)[C@@H](OC(=O)Nc3ccccc3)[C@@H](OC)O[C@@H]2CO)cc1	0.83
COc1ccc(CCNC(=O)[C@@H]2c3ccccc3C(=O)N(Cc3cc(C(F)(F)F)cc(C(F)(F)F)c3)[C@H]2c2ccc(CO)cc2)cc1	-0.272
Cc1ccc(S[C@]2(C(=O)O)CC(=O)N(Cc3ccccc3Cl)[C@@H]2c2ccc(CO)cc2I)cc1	0.653
COCCOC(=O)N1C(=O)[C@@]2(c3cc(C#Cc4ccc(OC)cc4)ccc31)[C@H](C(=O)Nc1nc3ccccc3s1)[C@H]1C(=O)O[C@H](c3ccccc3)[C@H](c3ccccc3)N1[C@@H]2c1ccc(OCCO)cc1	1.38
CN1C(=O)C2C=CC(C(O)COCc3ccccc3)N(N(c3ccccc3)c3ccccc3)C2C1=O (configuration not stated)	0.127
COc1ccc(CN(C2=CC[C@@]3(C(N)=O)C(=O)C(Cl)=C(Cl)C(=O)[C@@]3(C#N)C2)S(=O)(=O)c2ccc(Br)cc2)cc1	-0.0224
CN1C(=O)C2C=CC(C(O)c3ccccn3)N(N(c3ccccc3)c3ccccc3)C2C1=O (configuration not stated)	0.273
CO[C@H]1O[C@H](CO)[C@@H](OC(=O)Nc2ccccc2-c2ccccc2)[C@H](OC(=O)Nc2ccc3c(c2)OCO3)[C@H]1OC(=O)Nc1ccc2c(c1)OCO2	1.43
CCCCN1CC=CC23O[C@@H]4/C=C\CCC(C)OC(=O)C4[C@H]2C(=O)N(C(CO)C(C)C)[C@@H]3C1=O (some centres not stated)	0.167
[N-]=[N+]=Nc1ccccc1[C@H]1OC(c2ccc(OCCCO)cc2)=N[C@@]1(CCS(=O)(=O)c1ccccc1)C(=O)NCCN1CCOCC1	1.19
CCOc1cc(C(O)C2C=CC3C(=O)N(c4ccccc4)C(=O)C3N2Nc2ccc(C#N)cc2)ccc1O (configuration not stated)	0.472
